The reported numbers originate from patent US9242987B2.

Biological target: JAK3 (Homo sapiens, UniProt P52333)
Construct: endogenous in cells
Assay: Kinobeads assay, JAK3
Conditions: mixed Molt4/Ramos cell lysate, dot blot detection
Description: The compounds of the present invention as described in the previous examples were tested in a Kinobeads™ assay as described for ZAP-70 (WO-A 2007/137867). […] Bound proteins were then eluted and the presence of JAK2 and JAK3 was detected and quantified using specific antibodies in a dot blot procedure and the Odyssey infrared detection system. Dose response curves for individual kinases were generated and IC50 values calculated. […]
pIC50: −log10 of the molar value.

{"molecular_string": "COCCOc1cccc(Cn2ncc3cnc(Nc4cnn(CC(F)F)c4)nc32)c1", "test_target": "JAK3 (Homo sapiens, UniProt P52333)", "pIC50": "6.00 to 7.00"}
{"molecular_string": "Fc1cccc(Cn2ncc3cnc(Nc4cnn(CC(F)F)c4)nc32)c1F", "test_target": "JAK3 (Homo sapiens, UniProt P52333)", "pIC50": "> 7.00"}
{"molecular_string": "Cn1cc(Nc2ncc3cnn(Cc4cccc(OCCN5CCCC5=O)c4)c3n2)cn1", "test_target": "JAK3 (Homo sapiens, UniProt P52333)", "pIC50": "> 7.00"}
{"molecular_string": "COc1nn(CC(F)F)cc1Nc1ncc2cnn(Cc3cc(F)ccc3F)c2n1", "test_target": "JAK3 (Homo sapiens, UniProt P52333)", "pIC50": "> 7.00"}
{"molecular_string": "CC(C)c1ccccc1Cn1ncc2cnc(Nc3cnn(C)c3)nc21", "test_target": "JAK3 (Homo sapiens, UniProt P52333)", "pIC50": "6.00 to 7.00"}
{"molecular_string": "COc1nn(CC(F)F)cc1Nc1ncc2cnn(Cc3cc(F)ccc3C#N)c2n1", "test_target": "JAK3 (Homo sapiens, UniProt P52333)", "pIC50": "> 7.00"}
{"molecular_string": "CN(C)CCCn1cc(Nc2ncc3cnn(Cc4ccccc4F)c3n2)cn1", "test_target": "JAK3 (Homo sapiens, UniProt P52333)", "pIC50": "> 7.00"}

###

Biological target: JAK3 (Homo sapiens)
Construct: endogenous in cells
Sequence (P52333 1-1124): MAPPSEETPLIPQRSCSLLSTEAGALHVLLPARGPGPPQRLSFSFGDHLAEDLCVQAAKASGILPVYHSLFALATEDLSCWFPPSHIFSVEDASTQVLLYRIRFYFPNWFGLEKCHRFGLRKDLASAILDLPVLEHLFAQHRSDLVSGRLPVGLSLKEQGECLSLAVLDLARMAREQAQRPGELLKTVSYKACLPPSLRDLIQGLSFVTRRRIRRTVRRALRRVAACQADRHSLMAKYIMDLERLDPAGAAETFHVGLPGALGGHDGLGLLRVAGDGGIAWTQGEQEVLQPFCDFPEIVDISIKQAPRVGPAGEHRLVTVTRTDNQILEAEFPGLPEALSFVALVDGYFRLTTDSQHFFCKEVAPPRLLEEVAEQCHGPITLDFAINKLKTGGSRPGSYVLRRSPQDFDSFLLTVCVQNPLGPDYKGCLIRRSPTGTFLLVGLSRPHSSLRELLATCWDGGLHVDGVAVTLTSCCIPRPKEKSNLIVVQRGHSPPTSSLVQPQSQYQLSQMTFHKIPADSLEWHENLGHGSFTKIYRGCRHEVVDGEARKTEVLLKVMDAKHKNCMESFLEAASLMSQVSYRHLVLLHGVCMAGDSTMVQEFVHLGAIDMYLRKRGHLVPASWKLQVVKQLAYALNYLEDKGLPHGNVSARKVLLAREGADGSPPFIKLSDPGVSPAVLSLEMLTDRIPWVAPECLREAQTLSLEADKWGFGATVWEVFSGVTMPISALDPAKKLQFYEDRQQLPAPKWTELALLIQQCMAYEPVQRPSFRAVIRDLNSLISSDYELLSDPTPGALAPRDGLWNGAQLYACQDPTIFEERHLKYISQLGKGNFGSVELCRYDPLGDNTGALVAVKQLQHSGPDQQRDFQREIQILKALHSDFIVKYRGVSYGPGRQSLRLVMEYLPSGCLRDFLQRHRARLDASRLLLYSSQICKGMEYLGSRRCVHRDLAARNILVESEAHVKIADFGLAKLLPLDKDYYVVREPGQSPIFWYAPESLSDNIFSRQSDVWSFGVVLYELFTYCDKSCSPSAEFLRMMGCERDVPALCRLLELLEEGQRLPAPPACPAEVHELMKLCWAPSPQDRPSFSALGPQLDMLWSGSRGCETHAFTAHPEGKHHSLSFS
Assay: Kinobeads assay, JAK3
Details: mixed Molt4/Ramos cell lysate, dot blot detection
Method: The compounds of the present invention as described in the previous examples were tested in a Kinobeads™ assay as described for ZAP-70 (WO-A 2007/137867). […] Bound proteins were then eluted and the presence of JAK2 and JAK3 was detected and quantified using specific antibodies in a dot blot procedure and the Odyssey infrared detection system. Dose response curves for individual kinases were generated and IC50 values calculated. […]
Reported IC50 is given for each of the following molecules.
readout: IC50

{"molecular_string": "Fc1ccccc1Cn1ncc2cnc(Nc3cnn(CC(F)F)c3)nc21", "obs_value": "< 100 nM"}
{"molecular_string": "Cn1cc(Nc2ncc3cnn(Cc4cccc(Cl)c4Cl)c3n2)cn1", "obs_value": "< 100 nM"}
{"molecular_string": "Cn1cc(Nc2ncc3cnn(Cc4cccc(C5=CCOCC5)c4)c3n2)cn1", "obs_value": "< 100 nM"}
{"molecular_string": "Cn1cc(Nc2ncc3cnn(Cc4cccc(F)n4)c3n2)cn1", "obs_value": "< 100 nM"}
{"molecular_string": "Cn1cc(Nc2ncc3cnn(Cc4ccccc4OCCO)c3n2)cn1", "obs_value": "< 100 nM"}
{"molecular_string": "Cn1cc(Nc2ncc3cnn(Cc4ccccc4CO)c3n2)cn1", "obs_value": "< 100 nM"}
{"molecular_string": "Cn1nc(Nc2ncc3cnn(Cc4ccccc4F)c3n2)cc1C(=O)O", "obs_value": "100 to 1000 nM"}
{"molecular_string": "Cc1c(O)cccc1Cn1ncc2cnc(Nc3cnn(C)c3)nc21", "obs_value": "< 100 nM"}
{"molecular_string": "COCCNC(=O)c1cccc(Cn2ncc3cnc(Nc4cnn(C)c4)nc32)c1", "obs_value": "< 100 nM"}
{"molecular_string": "COc1nn(CC(F)F)cc1Nc1ncc2cnn(-c3ccc(S(N)(=O)=O)cc3)c2n1", "obs_value": "100 to 1000 nM"}
{"molecular_string": "Cn1cc(Nc2ncc3cnn(CCc4ccc(F)cc4)c3n2)cn1", "obs_value": "100 to 1000 nM"}
{"molecular_string": "Cn1cc(Nc2ncc3cnn(Cc4cccc(F)c4F)c3n2)cn1", "obs_value": "< 100 nM"}

###

target: JAK2 (Homo sapiens); construct: endogenous in cells; assay: Kinobeads assay, JAK2; conditions: mixed Molt4/Ramos cell lysate, dot blot detection

{"molecule": "Fc1ccccc1Cn1ncc2cnc(Nc3cnn(CC4CCNC4)c3)nc21 (centres unmarked)", "IC50": "100 to 1000 nM"}
{"molecule": "COCCOc1ccccc1Cn1ncc2cnc(Nc3cnn(C)c3)nc21", "IC50": "1000 to 10000 nM"}
{"molecule": "CC(O)Cn1cc(Nc2ncc3cnn(Cc4ccccc4F)c3n2)cn1 (centres unmarked)", "IC50": "100 to 1000 nM"}
{"molecule": "Cn1cc(Nc2ncc3cnn(Cc4cccc(C(F)(F)F)c4)c3n2)cn1", "IC50": "≥ 10000 nM"}
{"molecule": "Cn1cc(Nc2ncc3cnn(Cc4cccc(F)n4)c3n2)cn1", "IC50": "1000 to 10000 nM"}
{"molecule": "Cc1cc(Nc2ncc3cnn(Cc4ccccc4C#N)c3n2)nn1C", "IC50": "≥ 10000 nM"}
{"molecule": "Fc1ccccc1Cn1ncc2cnc(Nc3c[nH]nc3Cl)nc21", "IC50": "≥ 10000 nM"}
{"molecule": "CC(C)(O)Cn1cc(Nc2ncc3cnn(Cc4ccccc4F)c3n2)cn1", "IC50": "1000 to 10000 nM"}

###

Biological target: JAK2 (Homo sapiens, UniProt O60674)
Construct: endogenous in cells
Sequence (O60674 whole entry): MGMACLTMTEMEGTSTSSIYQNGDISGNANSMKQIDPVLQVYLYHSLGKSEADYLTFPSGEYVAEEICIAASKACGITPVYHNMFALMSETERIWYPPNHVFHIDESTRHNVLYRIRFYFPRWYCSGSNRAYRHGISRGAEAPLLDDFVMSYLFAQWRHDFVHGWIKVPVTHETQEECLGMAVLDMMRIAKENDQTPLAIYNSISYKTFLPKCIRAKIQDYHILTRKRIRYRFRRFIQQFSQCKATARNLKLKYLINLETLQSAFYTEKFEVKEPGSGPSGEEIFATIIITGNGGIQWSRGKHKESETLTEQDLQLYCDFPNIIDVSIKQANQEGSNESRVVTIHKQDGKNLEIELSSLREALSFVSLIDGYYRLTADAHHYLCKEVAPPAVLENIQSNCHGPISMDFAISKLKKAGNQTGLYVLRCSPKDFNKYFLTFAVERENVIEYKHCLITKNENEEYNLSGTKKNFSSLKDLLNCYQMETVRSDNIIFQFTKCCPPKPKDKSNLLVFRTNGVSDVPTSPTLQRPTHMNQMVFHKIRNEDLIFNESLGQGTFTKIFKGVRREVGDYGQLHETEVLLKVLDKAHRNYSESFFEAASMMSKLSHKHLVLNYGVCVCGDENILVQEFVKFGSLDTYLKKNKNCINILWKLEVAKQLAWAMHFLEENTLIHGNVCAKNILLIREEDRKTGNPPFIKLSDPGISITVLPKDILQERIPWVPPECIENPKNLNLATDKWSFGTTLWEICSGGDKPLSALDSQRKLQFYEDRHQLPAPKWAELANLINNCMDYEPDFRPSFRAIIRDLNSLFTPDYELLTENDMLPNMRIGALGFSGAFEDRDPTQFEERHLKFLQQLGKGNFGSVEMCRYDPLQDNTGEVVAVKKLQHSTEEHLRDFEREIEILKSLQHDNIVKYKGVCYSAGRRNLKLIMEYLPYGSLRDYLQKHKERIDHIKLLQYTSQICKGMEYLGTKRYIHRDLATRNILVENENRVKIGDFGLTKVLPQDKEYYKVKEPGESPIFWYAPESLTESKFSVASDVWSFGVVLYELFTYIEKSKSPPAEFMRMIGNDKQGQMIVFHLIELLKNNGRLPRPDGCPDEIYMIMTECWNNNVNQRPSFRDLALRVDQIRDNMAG
Experiment: Kinobeads assay, JAK2
Conditions: mixed Molt4/Ramos cell lysate, dot blot detection
Procedure: The compounds of the present invention as described in the previous examples were tested in a Kinobeads™ assay as described for ZAP-70 (WO-A 2007/137867). […] Bound proteins were then eluted and the presence of JAK2 and JAK3 was detected and quantified using specific antibodies in a dot blot procedure and the Odyssey infrared detection system. Dose response curves for individual kinases were generated and IC50 values calculated. […]
Here, each record is paired with measured IC50 data.

{"molecular_string": "Cn1cc(Nc2ncc3cnn(-c4ccc(C(=O)N5CCOCC5)cc4)c3n2)cn1", "IC50": "0.1 to 1 µM"}
{"molecular_string": "Cn1cc(Nc2ncc3cnn(Cc4c(F)cccc4NS(C)(=O)=O)c3n2)cn1", "IC50": "0.1 to 1 µM"}
{"molecular_string": "Cn1cc(Nc2ncc3cnn(Cc4cccc(Cl)c4Cl)c3n2)cn1", "IC50": "1 to 10 µM"}
{"molecular_string": "Cn1cc(Nc2ncc3cnn(CCc4ccc(F)cc4)c3n2)cn1", "IC50": "1 to 10 µM"}
{"molecular_string": "COc1ccc(F)c(Cn2ncc3cnc(Nc4cnn(C)c4)nc32)c1F", "IC50": "1 to 10 µM"}
{"molecular_string": "CC(C)c1cccc(Cn2ncc3cnc(Nc4cnn(C)c4)nc32)c1", "IC50": "≥ 10 µM"}
{"molecular_string": "Cn1cc(Nc2ncc3cnn(Cc4ccccc4F)c3n2)cc1C(=O)NCC#N", "IC50": "0.1 to 1 µM"}
{"molecular_string": "Cn1cc(Nc2ncc3cnn(Cc4cccc(N5CCOCC5)c4)c3n2)cn1", "IC50": "≥ 10 µM"}
{"molecular_string": "OCCn1cc(Nc2ncc3cnn(Cc4cc(F)ccc4F)c3n2)cn1", "IC50": "< 0.1 µM"}
{"molecular_string": "Cn1cnc(Nc2ncc3cnn(Cc4ccccc4F)c3n2)c1", "IC50": "≥ 10 µM"}
{"molecular_string": "Cn1cc(Nc2ncc3cnn(Cc4cc(Cl)ccc4F)c3n2)cn1", "IC50": "0.1 to 1 µM"}
{"molecular_string": "Cn1ccc(Nc2ncc3cnn(Cc4ccccc4C#N)c3n2)n1", "IC50": "≥ 10 µM"}
{"molecular_string": "OCCn1ccc(Nc2ncc3cnn(Cc4ccccc4F)c3n2)n1", "IC50": "≥ 10 µM"}
{"molecular_string": "O=C1COCCN1c1ccc(F)c(Cn2ncc3cnc(Nc4cnn(CCO)c4)nc32)c1F", "IC50": "1 to 10 µM"}
